Here, each record is paired with measured pIC50 data.
# measuredTarget: ROCK1 (Homo sapiens (Human), UniProt Q13464)
# Sequence (Q13464 whole entry): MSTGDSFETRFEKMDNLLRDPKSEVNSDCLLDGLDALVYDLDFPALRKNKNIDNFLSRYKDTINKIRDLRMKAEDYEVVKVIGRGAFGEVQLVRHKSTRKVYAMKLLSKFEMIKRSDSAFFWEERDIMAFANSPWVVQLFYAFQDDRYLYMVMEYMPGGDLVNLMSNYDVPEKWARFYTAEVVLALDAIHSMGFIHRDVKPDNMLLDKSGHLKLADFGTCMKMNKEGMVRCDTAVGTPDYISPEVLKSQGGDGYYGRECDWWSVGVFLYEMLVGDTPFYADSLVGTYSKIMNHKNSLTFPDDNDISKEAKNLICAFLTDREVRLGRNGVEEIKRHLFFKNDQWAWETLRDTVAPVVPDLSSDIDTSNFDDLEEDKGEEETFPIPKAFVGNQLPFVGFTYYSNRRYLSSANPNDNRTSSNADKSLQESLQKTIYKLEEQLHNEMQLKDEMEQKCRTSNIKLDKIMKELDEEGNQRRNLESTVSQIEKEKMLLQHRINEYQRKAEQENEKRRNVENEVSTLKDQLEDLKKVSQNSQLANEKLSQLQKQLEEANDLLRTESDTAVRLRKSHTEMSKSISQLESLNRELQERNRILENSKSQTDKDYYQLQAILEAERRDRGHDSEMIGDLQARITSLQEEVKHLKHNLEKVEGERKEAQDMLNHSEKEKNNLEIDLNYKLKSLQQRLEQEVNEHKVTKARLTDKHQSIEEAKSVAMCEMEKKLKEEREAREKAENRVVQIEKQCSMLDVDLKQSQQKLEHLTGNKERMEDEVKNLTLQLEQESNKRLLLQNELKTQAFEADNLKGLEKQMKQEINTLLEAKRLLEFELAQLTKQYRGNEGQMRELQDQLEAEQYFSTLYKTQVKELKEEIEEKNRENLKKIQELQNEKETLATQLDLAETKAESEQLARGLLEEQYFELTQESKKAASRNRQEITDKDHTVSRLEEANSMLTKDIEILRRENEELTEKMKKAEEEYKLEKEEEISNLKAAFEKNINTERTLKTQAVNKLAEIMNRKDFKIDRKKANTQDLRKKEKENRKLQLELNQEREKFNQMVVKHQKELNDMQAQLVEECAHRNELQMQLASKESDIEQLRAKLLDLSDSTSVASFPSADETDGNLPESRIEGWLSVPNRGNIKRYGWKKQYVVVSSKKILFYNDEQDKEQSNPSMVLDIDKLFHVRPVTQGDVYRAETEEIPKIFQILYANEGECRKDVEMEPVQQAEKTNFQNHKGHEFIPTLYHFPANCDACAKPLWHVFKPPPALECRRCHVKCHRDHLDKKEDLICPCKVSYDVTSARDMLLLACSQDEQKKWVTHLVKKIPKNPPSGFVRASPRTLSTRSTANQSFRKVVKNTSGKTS
Would you please state pIC50, meaning minus log10 of the concentration in mol/L, as a bare number?

Consider the worked cases shown below.
{"columns": ["compound", "pIC50"],
 "data": [
  ["CN(C)CCn1c(C(=O)N2CC(F)(F)C2)cc2ccc(-c3nccc(Nc4ccc(-c5cn[nH]n5)cc4)n3)cc21", 6.55],
  ["Cn1c(C(=O)N2CC(F)(F)C2)cc2ccc(-c3nccc(Nc4ccc(-c5cn[nH]c5)cc4)n3)cc21 [Comp. A, reference compound]", 5.49],
  ["CN(C)CCn1c(C(=O)N2CCC(F)(F)C2)cc2ccc(-c3nccc(Nc4ccc(-c5cnc[nH]5)cc4)n3)cc21", 5.37]
]}

Task: What value of pIC50 on ROCK1 (Homo sapiens (Human), UniProt Q13464) does O=C(c1cc2c(s1)CN(c1nccc(Nc3ccc(-c4cnc[nH]4)cc3)n1)CC2)N1CC2C(C1)C2(F)F (stereo not shown) have?
Result: 5.05

---

Values of pIC50 reported for ROCK1 (Homo sapiens (Human), UniProt Q13464) appear below.
Would you please state pIC50, meaning minus log10 of the concentration in mol/L, as a bare number?

Consider the worked cases shown below.
{"columns": ["compound", "measuredTarget", "pIC50"],
 "data": [
  ["C[C@H](NC(=O)c1cc2ccc(-c3nccc(Nc4ccc(-c5cnc[nH]5)cc4)n3)cc2n1CCN(C)C)C(F)(F)F", "ROCK1 (Homo sapiens (Human), UniProt Q13464)", 4.97],
  ["Cn1c(C(=O)N2CCCC2)cc2ccc(-c3nccc(Nc4ccc(-c5cn[nH]n5)cc4)n3)cc21", "ROCK1 (Homo sapiens (Human), UniProt Q13464)", 6.10],
  ["O=C(c1cc2c(s1)CN(c1nccc(Nc3ccc(-c4cnn[nH]4)cc3)n1)CC2)N1CC2C(C1)C2(F)F (stereo not shown)", "ROCK1 (Homo sapiens (Human), UniProt Q13464)", 5.91],
  ["O=C(c1cc2ccc(-c3nccc(Nc4ccc(-c5cn[nH]n5)cc4)n3)cc2o1)N1CC(F)(F)C1", "ROCK1 (Homo sapiens (Human), UniProt Q13464)", 5.70],
  ["O=C(c1nc2ccc(-c3nccc(Nc4ccc(-c5cn[nH]n5)cc4)n3)cc2[nH]1)N1CC(F)(F)C1", "ROCK1 (Homo sapiens (Human), UniProt Q13464)", 4.60]
]}

Below: the item to evaluate.
Task: What value of pIC50 on ROCK1 (Homo sapiens (Human), UniProt Q13464) does `O=C(c1cc2c(s1)CN(c1nccc(Nc3ccc(-c4c[nH]nn4)cc3)n1)CC2)N1CC(F)(F)C1` have?
Result: 5.56

---

# measuredTarget: ROCK2 (Homo sapiens (Human), UniProt O75116)
# Sequence (O75116 whole entry): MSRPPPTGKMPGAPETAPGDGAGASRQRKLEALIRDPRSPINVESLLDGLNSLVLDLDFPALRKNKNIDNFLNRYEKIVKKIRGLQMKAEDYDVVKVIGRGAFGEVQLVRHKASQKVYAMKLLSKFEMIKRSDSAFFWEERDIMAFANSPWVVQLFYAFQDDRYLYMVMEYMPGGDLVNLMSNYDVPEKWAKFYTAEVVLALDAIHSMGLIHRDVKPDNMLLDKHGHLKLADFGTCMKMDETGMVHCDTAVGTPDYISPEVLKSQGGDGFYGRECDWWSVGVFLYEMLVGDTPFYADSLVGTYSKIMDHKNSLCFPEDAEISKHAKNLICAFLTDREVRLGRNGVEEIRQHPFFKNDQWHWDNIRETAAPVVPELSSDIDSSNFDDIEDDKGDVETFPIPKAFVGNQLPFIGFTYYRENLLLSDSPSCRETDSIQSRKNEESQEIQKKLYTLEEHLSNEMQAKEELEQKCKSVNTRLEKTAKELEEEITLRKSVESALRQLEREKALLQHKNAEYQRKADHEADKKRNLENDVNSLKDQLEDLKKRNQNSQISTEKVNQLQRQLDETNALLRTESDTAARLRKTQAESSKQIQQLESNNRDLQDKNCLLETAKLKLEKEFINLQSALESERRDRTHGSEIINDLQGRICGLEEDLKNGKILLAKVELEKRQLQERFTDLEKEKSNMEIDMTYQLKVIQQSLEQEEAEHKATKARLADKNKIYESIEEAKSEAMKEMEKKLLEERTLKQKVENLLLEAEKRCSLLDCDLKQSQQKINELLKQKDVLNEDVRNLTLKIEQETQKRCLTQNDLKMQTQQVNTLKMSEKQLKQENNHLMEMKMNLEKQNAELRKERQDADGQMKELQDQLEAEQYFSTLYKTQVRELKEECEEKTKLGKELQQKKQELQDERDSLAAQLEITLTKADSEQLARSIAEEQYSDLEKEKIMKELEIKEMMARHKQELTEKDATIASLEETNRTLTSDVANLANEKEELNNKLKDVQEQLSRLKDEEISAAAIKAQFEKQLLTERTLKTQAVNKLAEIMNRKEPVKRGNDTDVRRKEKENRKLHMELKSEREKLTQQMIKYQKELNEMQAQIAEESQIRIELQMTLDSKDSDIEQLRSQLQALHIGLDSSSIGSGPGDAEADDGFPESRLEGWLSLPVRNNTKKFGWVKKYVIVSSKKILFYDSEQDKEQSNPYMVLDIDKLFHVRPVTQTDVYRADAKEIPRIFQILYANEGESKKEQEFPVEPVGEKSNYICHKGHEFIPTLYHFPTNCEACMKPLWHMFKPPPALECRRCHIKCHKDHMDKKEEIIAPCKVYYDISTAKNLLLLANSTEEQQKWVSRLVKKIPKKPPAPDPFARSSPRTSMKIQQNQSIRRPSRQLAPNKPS
parameter: IC50 (µM)
Dear colleague, please return just the value in µM, with no unit written.

Consider the worked cases shown below.
{"columns": ["compound", "valueReported"],
 "data": [
  ["Cn1c(C(=O)N2CC(F)(F)C2)cc2ccc(-c3nccc(Nc4ccc(-c5cn[nH]c5)cc4)n3)cc21 [Comp. A, reference compound]", 0.00229],
  ["O=C(c1cc2ccc(-c3nccc(Nc4ccc(-c5cn[nH]n5)cc4)n3)cc2o1)N1CC(F)(F)C1", 10]
]}

Below: the item to evaluate.
Task: GET /values?readout=IC50&item= `CN(C)CCn1c(C(=O)N2CCC(F)(F)C2)cc2ccc(-c3nccc(Nc4ccc(-c5cnc[nH]5)cc4)n3)cc21`
Result: 10
